System: SARS-COV-2 US-WA1/2020 (NR-52281)
Assay: plaque assay of infectious virus released into culture medium, Vero cells
Assay type: cell-based
Details: Severe acute respiratory syndrome coronavirus 2, m.o.i 0.1, BIT225 added 1 hour pre-infection, 4 days post infection
quantityName: EC50 (µM)
Answer in µM, number only, no unit symbol.

Fill in the recorded EC50 for this compound, with SARS-COV-2 US-WA1/2020 (NR-52281) as test system: Cn1cc(-c2cccc3cc(C(=O)NC(=N)N)ccc23)cn1 [BIT225] 4.09

* * *

Tested on: six strains of SARS-COV-2
Assay: plaque assay, summary over six strains and two cell types
Type: cell-based
Conditions: Severe acute respiratory syndrome coronavirus 2; plaque assay; mean over six strains and two cell types; read-out: EC50, mean
quantityName: EC50 (µM)
Answer in µM, number only, no unit symbol.

# get_value(readout='EC50', item= Cn1cc(-c2cccc3cc(C(=O)NC(=N)N)ccc23)cn1 ) 6.2
